Answer each item with its documented PBM E-score.
Biological target: Abf1 (UniProt P14164)
Sequence: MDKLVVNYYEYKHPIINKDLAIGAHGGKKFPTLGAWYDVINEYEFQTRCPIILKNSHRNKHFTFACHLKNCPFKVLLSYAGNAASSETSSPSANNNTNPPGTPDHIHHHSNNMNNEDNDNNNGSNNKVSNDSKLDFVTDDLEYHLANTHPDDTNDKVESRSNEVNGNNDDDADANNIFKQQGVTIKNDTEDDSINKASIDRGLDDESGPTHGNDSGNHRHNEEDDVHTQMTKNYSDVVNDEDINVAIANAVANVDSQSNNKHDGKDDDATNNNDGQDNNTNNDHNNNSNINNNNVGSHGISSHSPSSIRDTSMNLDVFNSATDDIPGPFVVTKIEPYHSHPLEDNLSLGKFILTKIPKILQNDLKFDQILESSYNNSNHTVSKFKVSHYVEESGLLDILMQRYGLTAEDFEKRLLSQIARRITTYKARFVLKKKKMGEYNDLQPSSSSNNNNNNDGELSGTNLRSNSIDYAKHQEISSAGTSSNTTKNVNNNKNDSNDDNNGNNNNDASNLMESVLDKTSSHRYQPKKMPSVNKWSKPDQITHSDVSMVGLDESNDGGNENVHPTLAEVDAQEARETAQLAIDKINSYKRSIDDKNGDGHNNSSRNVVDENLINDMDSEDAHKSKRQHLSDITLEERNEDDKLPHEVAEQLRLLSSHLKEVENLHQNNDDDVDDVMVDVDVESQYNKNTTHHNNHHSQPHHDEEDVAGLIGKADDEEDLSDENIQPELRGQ
Assay: PBM E-score (8-mer binding enrichment) (E-score (-0.5 to 0.5)); higher = stronger / more preferred TF binding
Details: protein concentration: 200 nM; construct: GST-full length
Whole data set: some 33,000 sequences, median “E-score (-0.5 to 0.5)” near -0.015, cut for the highest 2% near 0.3. The sample as a whole holds a higher share of the highest values than the screen did.

GET /value?item= AATCATCG &field=PBM E-score returns 0.179

// PBM E-score value for GTTACGAA : 0.208

Entry AGCTTGAA , PBM E-score reported as -0.106

Noted for AGATATCA : its PBM E-score reads 0.3

According to the records, this sequence ATTGATAA displays PBM E-score of 0.27

Per the records, this sequence ( TGATATAA ) has PBM E-score equal to 0.281

Sure, the documented PBM E-score for AAACACCC is -0.0385

Query ACATATCA yields PBM E-score of 0.341

# PBM E-score of CAGCAGAG = -0.263

PBM E-score in this record for TCTCATCA : 0.145

// PBM E-score value for TATCATCA : 0.385

Value of PBM E-score reported for the sequence GATCGCTA is 0.157

Just so you know, measured PBM E-score for GATACGAA came out at 0.309

// sample TCATATGA , its PBM E-score was 0.101

// field: PBM E-score; key: ACCGAGGT ; value = -0.113

// CCGATCCG : PBM E-score value = -0.0938

Kindly note the recorded PBM E-score for ATGCATAC , which is 0.0289

GET /value?item= ATGTTACG &field=PBM E-score returns 0.087

Kindly note the recorded PBM E-score for GCATATCC , which is 0.179

GTTGAGAA has a reported PBM E-score of 0.098

Per the record, AGTGATAC has PBM E-score of 0.385

According to the records, this sequence AGATATCC displays PBM E-score of 0.232

According to the records, this sequence AATTGACT displays PBM E-score of -0.00646

PBM E-score reading for TGATATCA : 0.34

Record ACTTACCT . Reported PBM E-score: -0.165

Given item CGCCTGAG , the value recorded as its PBM E-score is -0.0541

For reference, reported PBM E-score for TATACGAA stands at 0.368

So, CAACGTTC ? Its PBM E-score was -0.145

// sample TCTACGAA , its PBM E-score was 0.301

Note to self: PBM E-score recorded for ACTACGAA was 0.205

So, GATTATCA ? Its PBM E-score was 0.302

Quick note, PBM E-score for ACTCGGAG landed at -0.00102

So for AGTGATAA , the logged PBM E-score turned out to be 0.445

Measured PBM E-score, CGTGATAC : 0.23

Query CATACGAA yields PBM E-score of 0.267

For this sequence ( ATTGATAG ), measured PBM E-score is -0.0465

Value of measured PBM E-score for the entry CACAGTGA : 0.109

Record GATTATCC , field PBM E-score: 0.152

For record ACATATCG the listed PBM E-score is 0.118

Reported PBM E-score for CCTATTCC was -0.139

For record CCATATCA the listed PBM E-score is 0.163

Entry ACATATCC — recorded PBM E-score = 0.236

Input TCTTGTAA . Output PBM E-score: 0.0644

Given item AATTATCG , the value recorded as its PBM E-score is 0.178

sequence AGACCGAC , PBM E-score observed: -0.00992

Measured PBM E-score, TATACGGA : 0.164
